Biological target: oxytocin receptor (OXTR), hOTR (Homo sapiens, UniProt P30559)
Construct: expressed in transfected cells
Sequence (P30559 1-389): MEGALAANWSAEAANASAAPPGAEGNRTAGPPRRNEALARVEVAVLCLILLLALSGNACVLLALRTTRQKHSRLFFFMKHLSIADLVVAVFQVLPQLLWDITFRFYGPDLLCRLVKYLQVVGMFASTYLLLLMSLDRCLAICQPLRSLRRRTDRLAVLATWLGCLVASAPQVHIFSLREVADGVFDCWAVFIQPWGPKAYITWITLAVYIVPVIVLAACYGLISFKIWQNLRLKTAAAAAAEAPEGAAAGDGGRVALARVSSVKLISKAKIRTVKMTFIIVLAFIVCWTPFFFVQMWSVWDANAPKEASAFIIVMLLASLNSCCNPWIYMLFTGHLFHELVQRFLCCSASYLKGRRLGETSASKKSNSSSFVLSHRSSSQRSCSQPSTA
Assay: IP1 accumulation assay, OTR-expressing HEK-293 cells (agonist and antagonist assessment)
Type: cell-based
Conditions: HEK293; read-out: OXTR Emax (% OXT)
measured-property: Emax (%)

compound="Cn1ncc2c1Nc1ccccc1N(C(=O)c1ccc3c(c1)OCO3)C2 [TRGA95]" measured_property=Emax result_unit=% measured_value=13
compound="Cn1ncc2c1Nc1ccccc1N(C(=O)C13CC4CC(CC(F)(C4)C1)C3)C2 [WJ0807mF]" measured_property=Emax result_unit=% measured_value=25.3
compound="Cn1ncc2c1Nc1ccccc1N(C(=O)c1ccc(Cl)cc1)C2 [WJ0755]" measured_property=Emax result_unit=% measured_value=10.2
compound="Cc1ccc(C(=O)N2Cc3cnn(C)c3Nc3ccccc32)cc1C [WJ5103]" measured_property=Emax result_unit=% measured_value=5.87
compound="Cn1ncc2c1Nc1ccccc1N(C(=O)c1ccc(Cl)c(Cl)c1)C2 [WJ0824]" measured_property=Emax result_unit=% measured_value=12.9
compound="COc1ccc(C(=O)N2Cc3cnn(C)c3Nc3ccccc32)cc1 [WJ0661]" measured_property=Emax result_unit=% measured_value=8.14

---

Biological target: UniProt P37288
Sequence (P37288 whole entry): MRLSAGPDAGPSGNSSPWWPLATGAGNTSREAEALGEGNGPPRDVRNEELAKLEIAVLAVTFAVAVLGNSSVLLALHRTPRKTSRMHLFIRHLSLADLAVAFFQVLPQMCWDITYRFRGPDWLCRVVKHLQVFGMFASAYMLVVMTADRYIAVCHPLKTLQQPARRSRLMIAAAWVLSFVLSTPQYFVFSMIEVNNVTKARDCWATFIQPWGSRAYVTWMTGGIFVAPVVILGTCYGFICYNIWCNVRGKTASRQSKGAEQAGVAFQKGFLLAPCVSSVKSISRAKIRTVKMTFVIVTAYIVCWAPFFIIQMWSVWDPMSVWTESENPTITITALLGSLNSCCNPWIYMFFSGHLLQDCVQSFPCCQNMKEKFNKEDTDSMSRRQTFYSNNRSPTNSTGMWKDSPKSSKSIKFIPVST
Assay: IP1 accumulation assay, V1aR-expressing HEK-293 cells (agonist and antagonist assessment)
Conditions: antagonist assessment vs AVP 25 nM (~EC70), IP1
Experimental: Cells were subsequently maintained in 10% DMEM containing hygromycin (80 μg/ml), penicillin (100 U/ml), streptomycin (0.1 mg/ml) and blasticidine S hydrochloride (15 μg/ml). Cells were incubated in tetracycline (2 μg/mL) for 48 h to induce receptor expression. […] The contents of each well were transferred to a white-walled proxy plate (Perkin Elmer) and fluorescence read using a Pherastar Microplate reader (BMG Labtech, Cary, N.C., USA). […]
pIC50: −log10 of the molar value.
measured-property: pIC50

molecule=Cn1ncc2c1Nc1ccccc1N(C(=O)c1ccc(Cl)c(Cl)c1)C2 measured_property=pIC50 measured_value="< 5.00"
molecule=COc1ccc(C(=O)N2Cc3cnn(C)c3Nc3ccccc32)cc1 measured_property=pIC50 measured_value=6.34
molecule="Cn1ncc2c1Nc1ccccc1N(C(=O)C13CC4CC(F)(CC(F)(C4)C1)C3)C2 [WJ0807dF]" measured_property=pIC50 measured_value="< 5.00"
molecule=CCc1ccc(C(=O)N2Cc3cnn(C)c3Nc3ccccc32)cc1 measured_property=pIC50 measured_value=5.78
molecule=Cn1ncc2c1Nc1ccccc1N(C(=O)c1ccncc1)C2 measured_property=pIC50 measured_value="< 5.00"
molecule=Cn1ncc2c1Nc1ccccc1N(Cc1cc(O)cc(O)c1)C2 measured_property=pIC50 measured_value="< 5.00"
molecule=Cn1ncc2c1Nc1ccccc1N(C(=O)c1cccnc1)C2 measured_property=pIC50 measured_value="< 5.00"
molecule=Cn1ncc2c1Nc1ccccc1N(C(=O)c1ccc(Cl)cc1)C2 measured_property=pIC50 measured_value=5.78
molecule=Cn1ncc2c1Nc1ccccc1N(C(=O)C1CCCC1)C2 measured_property=pIC50 measured_value="< 5.00"
molecule=Cc1ccc(C(=O)N2Cc3cnn(C)c3Nc3ccccc32)cc1 measured_property=pIC50 measured_value=6.15
molecule=Cn1ncc2c1Nc1ccccc1N(C(=O)C13CC4CC(CC(C4)C1)C3)C2 measured_property=pIC50 measured_value="< 5.00"
molecule="COc1ccc2c(c1)N(C(=O)c1ccccc1)Cc1cnn(C)c1N2 [WJ07117MeO]" measured_property=pIC50 measured_value="< 5.00"
molecule="Cn1ncc2c1Nc1ccccc1N(C(=O)C13CC4CC(CC(F)(C4)C1)C3)C2 [WJ0807mF]" measured_property=pIC50 measured_value="< 5.00"
molecule=Cn1ncc2c1Nc1ccccc1N(C(=O)c1ccc(C(F)(F)F)cc1)C2 measured_property=pIC50 measured_value="< 5.00"
molecule=Cc1ccc(C(=O)N2Cc3cnn(C)c3Nc3ccccc32)cc1C measured_property=pIC50 measured_value=6.46
molecule=Cn1ncc2c1Nc1ccccc1N(C(=O)C1C(C)(C)C1(C)C)C2 measured_property=pIC50 measured_value="< 5.00"
molecule=Cn1ncc2c1Nc1ccccc1N(C(=O)c1ccccn1)C2 measured_property=pIC50 measured_value="< 5.00"

---

Molecular target: oxytocin receptor (OXTR), hOTR (Homo sapiens, UniProt P30559)
Sequence (P30559 1-389): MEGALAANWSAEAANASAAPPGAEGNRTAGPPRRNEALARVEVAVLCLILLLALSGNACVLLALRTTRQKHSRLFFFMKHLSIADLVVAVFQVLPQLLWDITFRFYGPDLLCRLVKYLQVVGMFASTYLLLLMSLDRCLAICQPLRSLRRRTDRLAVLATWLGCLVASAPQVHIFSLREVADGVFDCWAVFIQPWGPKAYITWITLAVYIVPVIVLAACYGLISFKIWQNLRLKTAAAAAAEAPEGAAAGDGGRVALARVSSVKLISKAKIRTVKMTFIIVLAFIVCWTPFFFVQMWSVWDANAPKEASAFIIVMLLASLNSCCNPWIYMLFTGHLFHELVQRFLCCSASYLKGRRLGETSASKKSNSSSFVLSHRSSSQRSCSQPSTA
Assay: IP1 accumulation assay, OTR-expressing HEK-293 cells (agonist and antagonist assessment)
Settings: agonist assessment, IP1, 1 h
pEC50: −log10 of the molar value.
measured-property: pEC50

compound="Cn1ncc2c1Nc1ccccc1N(C(=O)c1ccccn1)C2 [WJ0759]" measured_value="< 5.00"
compound="COc1cc(OC)cc(C(=O)N2Cc3cnn(C)c3Nc3ccccc32)c1 [WJ0629]" measured_value="< 5.00"
compound="Cn1ncc2c1Nc1ccccc1N(S(=O)(=O)c1ccc(Cl)cc1)C2 [WJ0633]" measured_value="< 5.00"

---

// each record: one item and its Ki for UniProt P30559
measured-property: Ki (nM)

compound=Cn1ncc2c1Nc1ccccc1N(C(=O)c1ccc(Cl)c(Cl)c1)C2 value_relation_sign== measured_value=1620
compound=Cn1ncc2c1Nc1ccccc1N(C(=O)c1ccc(C(F)(F)F)cc1)C2 value_relation_sign== measured_value=560
compound=Cn1ncc2c1Nc1ccccc1N(C(=O)C1C(C)(C)C1(C)C)C2 value_relation_sign=> measured_value=10000
compound=Cn1ncc2c1Nc1ccccc1N(C(=O)C1CCCC1)C2 value_relation_sign=> measured_value=10000
compound=Cn1ncc2c1Nc1ccccc1N(C(=O)c1cccc(F)c1)C2 value_relation_sign== measured_value=422
compound="COc1ccc2c(c1)N(C(=O)c1ccccc1)Cc1cnn(C)c1N2 [WJ07117MeO]" value_relation_sign=> measured_value=10000
compound=Cn1ncc2c1Nc1ccccc1N(C(=O)c1cccnc1)C2 value_relation_sign=> measured_value=10000
compound=Cc1cccc(C(=O)N2Cc3cnn(C)c3Nc3ccccc32)c1 value_relation_sign== measured_value=553
compound=Cc1ccc(CN2Cc3cnn(C)c3Nc3ccccc32)cc1C value_relation_sign=> measured_value=10000
compound=CCc1ccc(C(=O)N2Cc3cnn(C)c3Nc3ccccc32)cc1 value_relation_sign== measured_value=22
compound="Cn1ncc2c1Nc1ccccc1N(C(=O)C13CC4CC(F)(CC(F)(C4)C1)C3)C2 [WJ0807dF]" value_relation_sign=> measured_value=10000
compound="Cc1ccc2c(c1)N(C(=O)c1ccccc1)Cc1cnn(C)c1N2 [WJ07117Me]" value_relation_sign== measured_value=4070
compound="Cn1ncc2c1Nc1ccccc1N(C(=O)C13CC4CC(CC(F)(C4)C1)C3)C2 [WJ0807mF]" value_relation_sign=> measured_value=10000
compound=Cc1ccc(C(=O)N2Cc3cnn(C)c3Nc3ccccc32)cc1 value_relation_sign== measured_value=149
compound=Cn1ncc2c1Nc1ccccc1N(C(=O)c1ccncc1)C2 value_relation_sign=> measured_value=10000
compound=Cc1ccc(S(=O)(=O)N2Cc3cnn(C)c3Nc3ccccc32)cc1 value_relation_sign=> measured_value=10000
compound=COc1cccc(C(=O)N2Cc3cnn(C)c3Nc3ccccc32)c1 value_relation_sign== measured_value=842

---

Biological target: oxytocin receptor (OXTR), hOTR (Homo sapiens, UniProt P30559)
Construct: expressed in transfected cells
Sequence (P30559 1-389): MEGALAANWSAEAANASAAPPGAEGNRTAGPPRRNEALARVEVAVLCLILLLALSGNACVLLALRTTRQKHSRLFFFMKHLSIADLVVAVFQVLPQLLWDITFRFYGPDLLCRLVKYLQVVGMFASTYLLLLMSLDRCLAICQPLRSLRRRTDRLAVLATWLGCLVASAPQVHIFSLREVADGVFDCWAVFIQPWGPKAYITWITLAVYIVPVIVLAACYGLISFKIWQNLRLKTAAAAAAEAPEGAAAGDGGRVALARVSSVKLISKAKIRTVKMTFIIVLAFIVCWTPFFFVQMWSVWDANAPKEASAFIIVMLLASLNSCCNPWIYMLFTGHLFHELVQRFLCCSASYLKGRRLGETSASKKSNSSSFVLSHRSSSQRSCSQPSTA
Test: IP1 accumulation assay, OTR-expressing HEK-293 cells (agonist and antagonist assessment)
Assay type: cell-based
Conditions: ratio of OXTR functional potency to V1aR functional potency; 'OT only' = function at OXTR only
Each entry below lists one item and its recorded OV function value.
measured-property: OV function

compound="Cc1cc(C(=O)N2Cc3cnn(C)c3Nc3ccccc32)ccc1CN [WJ0761]" measured_value=<0.92
compound="Cn1ncc2c1Nc1ccccc1N(C(=O)C1CCCCC1)C2 [CA6 (KA)]" measured_value=<0.04
compound="Cn1ncc2c1Nc1ccccc1N(C(=O)C1CCCC1)C2 [CAS (KA)]" measured_value=<0.33
compound="Cn1ncc2c1Nc1ccccc1N(C(=O)c1ccc(Cl)cc1)C2 [WJ0755]" measured_value=0.09
